These data points were gathered from paper PMC5660060.

Biological target: MSMEG_3765 (TetR3765) (Mycobacterium smegmatis mc2155) (UniProt A0QYS0)
Sequence: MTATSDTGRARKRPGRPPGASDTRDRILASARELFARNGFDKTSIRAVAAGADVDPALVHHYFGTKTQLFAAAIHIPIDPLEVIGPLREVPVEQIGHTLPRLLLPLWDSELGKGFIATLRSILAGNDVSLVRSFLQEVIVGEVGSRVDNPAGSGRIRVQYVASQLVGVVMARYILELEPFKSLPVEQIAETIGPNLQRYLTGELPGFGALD
Assay: EMSA
Conditions: 40 mM HEPES pH 8.0, 150 mM NaCl, 20 mM MgCl2, 10% glycerol, 37 C, 20 min; 8% native PAGE, SYBR Safe
recorded.metric: binding

[
  {
    "record.sequence": "CTGCTGGAGTCCGCCGCCTGAGCCAGGCGTCGCCGACGCCGAAATGTGTCGACGCATCGTCTTCCCACCGGACGACGGCAGGCCTAGAATTCATTGC (double strand) [fragment c 97 bp]",
    "result": "no binding"
  },
  {
    "record.sequence": "CGGGATCCGATCCTGCGGGGCGCCGACGACCACACGCTGTCGCTGATCACCGAGTACGTCGACGTCGCACGGTTGCGGGCCGACATTATCGGCCTGCTGGAGTCCGCCGCCTGAGCCAGGCGTCGCCGACGCCGAAATGTGTCGACGCATCGTCTTCCCACCGGACGACGGCAGGCCTAGAATTCATTGC (double strand) [fragment b 182 bp]",
    "result": "no binding"
  }
]

----------
Target: MSMEG_3765 (TetR3765) (Mycobacterium smegmatis mc2155) (UniProt A0QYS0)
Sequence: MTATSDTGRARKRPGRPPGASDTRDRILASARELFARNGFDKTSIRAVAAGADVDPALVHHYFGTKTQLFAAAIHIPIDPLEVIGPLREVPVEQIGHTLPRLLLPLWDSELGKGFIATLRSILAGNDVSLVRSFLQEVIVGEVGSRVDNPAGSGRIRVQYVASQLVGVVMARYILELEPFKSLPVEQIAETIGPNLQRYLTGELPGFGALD
Assay: EMSA
Details: 40 mM HEPES pH 8.0, 150 mM NaCl, 20 mM MgCl2, 10% glycerol, 37 C, 20 min; 8% native PAGE, SYBR Safe

[
  {
    "record.sequence": "CCGGATCCGACCTCGACCACCATCGCACGCACACCCCGTCCGGCAATAGTTGCGCCGAGCAGCCGATGCGCGGCCGCGACCGGGTCGATCGCCAGTTCCTCAGCGTTCATCAGAGACGATTGTGCACCGGCCCTTGACAAACCCGCACGACTGGCGGATATTCATCACATGATGATTTCATCAAGTGATGAATTACTTCGCGACGGTGGGGCCCG (double strand) [Rv1687c upstream fragment 200 bp]",
    "binding": "binds"
  },
  {
    "record.sequence": "CTGCTGGAGTCCGCCGCCTGAGCCAGGCGTCGCCGACGCCGAAATGTGTCGACGCATCGTCTTCCCACCGGACGACGGCAGGCCTAGAATTCATTGCATGATGACTTCATCGCGCGATGAATTGTCAGCGACGGGGCCCG (double strand) [fragment a 133 bp]",
    "binding": "binds"
  }
]
